Molecular target: T1, recombinant, soluble human ASGR-1 (human, UniProt P07306 62-291)
T1 construct: biotinylated in the binning assay; also called soluble huASGR-1; Soluble ASGR-1 (Amgen)
T1 sequence: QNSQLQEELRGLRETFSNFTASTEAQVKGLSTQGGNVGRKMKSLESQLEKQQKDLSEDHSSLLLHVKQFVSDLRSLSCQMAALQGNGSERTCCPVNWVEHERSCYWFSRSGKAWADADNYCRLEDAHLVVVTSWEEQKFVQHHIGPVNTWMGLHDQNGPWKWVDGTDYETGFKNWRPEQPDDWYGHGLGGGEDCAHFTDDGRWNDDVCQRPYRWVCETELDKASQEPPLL
Test: Octet BLI dissociation, pH 5.6 plus calcium
// reported % Change Compared to pH 7.4 + Calcium per item
State the value with its unit after it.

73G1 (antibody, V domains shown, hybridoma mAb) VH: QVQLVESGGGVVQPGRSLRLSCAGTGFTFSYYGMHWVRQAPGKGLEWVAVTTYDGSNKYYADSVKGRFTSSRDNSKNTLYLQMNSLRAEDTAVYHCARETGTWAFDIWGQGTMVTVSL VL: QTVVTQEPSFSVSPGGTVTLTCGLSSGSVSTSYYPSWYQQTPGQAPRTLIYNTNTRSSGVPDRFSGSILGNKAALTITGAQADDESDYYCVLYMGSAIWVFGGGTKLTVL	33%

Note: attention shifts to another entry.
Would you mind telling me what % Change Compared to pH 7.4 + Calcium value was observed for 197G3 (antibody, V domains shown, hybridoma mAb) VH: QVQLVESGGGVVQPGRSLRLSCVASGFTFSSHGMHWVRQAPGKGLEWVAVIWYDGSNKNYADSVKGRFTISRDNSKNTLYLQMNSLRAEDTAVYYCARDPSVGYDGMDVWGQGTTVTVSS VL: DIQMTQSPSSLSASVGDRVTITCRASQGIGNHLAWFQQKPGKAPKSLIYAASSLQSGVPSKFSGSRSGTDFSLTISSLQPEDFATYYCQQYSNYPVTFGPGTKVDIK ? -3%
